assay: folding stability dG unfold from chymotrypsin proteolysis; higher = more stable
assay readout: folding stability dG unfold (kcal/mol)

SANPGKPVTIEIPVEEIRQKLNEENPDKPLTPSELKDLAKELIQRQGFPFKDVEIKSVNPGNGWIKIKVSAG [r14_303_TrROS] | -0.538
SAGGMKKTVTITITEELPTETGEYKTKTVTTTLTVTPPPPEVTEEEKLREKALKENPNVSPDDPKALLSAGG [r13_136_JUSTAS] | 0.535
SAGGSAGGSAGDDNKKKPKPKIEIQPVRMTMPFPENGLRIEIDIWVIKDGNIIFMIEWYPSAGGSAGGSAGG [r11_463_TrROS] | 3.72
SAGGSAGGSAGGATAEELAAALKELEAKLKALLEKPEEVEVEVEVKAPEVEEVDGKLVLLSAGGSAGGSAGG [r7_44_TrROS_Hall] | -1.19
SAGGSAGGSAGGMIIIIPTPKGTVALVIDENSDKPTLIEASPDEIPDLIEKGAKEVIILPSAGGSAGGSAGG [r7_266_TrMRF] | 1.22
SAGMVVTINFSIPETGETITITIPVPEDDPVVKALGAPSAEDIAAYLAPQLKEKGINVQNPTVTVTEPSSAG [r5_722_JUSTAS] | 0.928
SAGGSKPLKKIVIPLTPEELKKLKGKKVKITIKVDGKEYEIEFIDGYAVITVPAGEKVEITKIEIESAGGSA [r2_246_TrROS_Hall] | 2.36

----------
experiment: folding stability dG unfold from trypsin proteolysis; higher = more stable
Listed next: entries and their corresponding folding stability dG unfold.
assay readout: folding stability dG unfold (kcal/mol)

SAGGGSMAASSVTSEEKPLPDGSSLSIPEITRPDNVATLTVEYYDPKTGTKYTFTLTIPISPDDTVTLSAGG [r13_190_JUSTAS] | 1.79
SAEIEVKPGEELEITVNGKKLRITVEKVEVRVEVKELPPPPPPEVEVYTLTRDPATDELRLERRTAEELASA [r9_881_TrROS_Hall] | 0.0576
SATFKPGETVTIDELTIDGATITKVTVTVNADGTITITATIKPAPPPPPPPEVVRNPETGKTYPAGEVKDSA [r9_603_TrROS_Hall] | 1.87
SAGGMPPGDPVKVNVQIRIRMRDPNGKKPELTVPIEYNVQSKEDARDAILKIAKELADEYGYEIEVFSAGGS [r8_149_TrROS] | 0.711

----------
Listed next: entries and their corresponding folding stability dG unfold.
assay: folding stability dG unfold (combined trypsin and chymotrypsin); higher = more stable
assay readout: folding stability dG unfold (kcal/mol)

SAGGIKPDEPAIVLVKIPLPPGPNPEGGLEGPVLKTFPLEVGFPSLEELIEAVKELFPEGTEVEIIPSAGGS [r16_282_TrMRF] | 0.455
KKVKIEIEVLSKTEEGYVMIAKAKYEEVEKVFEKPYKSKNPIETIKKIVKELFPGPEVTEVKVKYYPKEKKS [r1_399_TrMRF] | 1.35
SAGGMSLEHVTEIVETVTHPDGTKTVTIRLSDPAIWAGEDPATAAALAEAVQAEHADEGVAVTVVGAPSAGG [r13_243_JUSTAS] | 0.585
SAGGWRYILRQIREAAKNGEEVTINFPPGMNPSFLLSWIRKENGAEVKPITVKPNPNGYGTINIKVKSAGGS [r16_318_TrROS] | 1.8
SAGGSAGGELEVEIVSVEFDEETKEIRIKIYVNGKLIEEKTIKIEPVKVYYKTKDGKKVSAEDLSAGGSAGG [r6_832_TrROS_Hall] | 1
SAGGSADGRVVELPVRIRLYRRDPVSGRWELVEEFEVPVRVPAPKDAVVGLRIERRGDRFRIVVGVSAGGSA [r15_537_TrMRF] | 3.25
SADPPDAVKIEIRIYMMEYDPDGKWEQREFNIEIEVAPDGHIIIRLGNWWIVIDPKEGEVTEIFPGFRFSAG [r14_821_TrROS] | 3.14
SAGGMTITVTVGPGKEEEAVEALKKKTGLKVELVETTPRPVRAPDGTVLEEVEEITIKITKPDPNLKESAGG [r13_943_JUSTAS] | -0.638
SAGGSAGGSAGGWIMVPIEIKVDLKWGPNGQHEIETVPILIIIRIPPPPVPEEQAEKNNGSAGGSAGGSAGG [r11_318_TrROS] | 2.81
SAGTIRGLPAEFAKRIANELAQNGYEIVAVTVTYDPPNGTFKIEVEMRPPNGKVREHDIEIQVRLPPDDSAG [r5_985_TrROS] | 2.45
SPSRPTLVTTYTFDPSGVPTATTKEITPEEVEELEKKGWKKLSEDPEKGLITLEKKLPTSPQKIEVTILPSA [r9_5_JUSTAS] | 0.0748
SAGGSAGGSAGGGPPVERVTTETILRPDGTTTTTRKTTVVPPTDTVTTTTTTLTTTPVTSAGGSAGGSAGGS [r10_1139_JUSTAS] | 0.0441
SAGGSAGGSAPDIKILEPLEVDPDNGMITLKIELPGDGKVHEAIFFNPDGEPMMKFTIEIPKSAGGSAGGSA [r18_296_TrROS] | 0.299
SAGGSAGGSITPEEAKALAEEIKKALGVPDVEVLEIRVERDPERDFYTADIVIRLPDGSVIRASAGGSAGGS [r12_508_TrMRF] | 1.7

----------
assay: folding stability dG unfold from trypsin proteolysis; higher = more stable
assay readout: folding stability dG unfold (kcal/mol)

SAGGSAGGSAGGLRAKIVEIKEVKVKKLYKDPETNEWYEEEKTVKVIKIKIEPAKPGEKISAGGSAGGSAGG [r17_530_TrROS_Hall] | 0.537
SAGGSTLDELIDAIKKAAKKGKEPVEIEFPNPNGGMIKINPDGSIETFPPNGEPQRFKIPLDDLKISAGGSA [r2_97_TrROS] | -0.568
SAGGSAGGSTVTIEIPGFKTPEEIAKAIAEKTGKKVKEVKVEKDKKNKTYTITVTVDGKEITFSAGGSAGGS [r12_935_TrROS_Hall] | 0.333
SKTFYAGLDVYFDPDSDELTALVGVRSEDGSYEPSLEEVAREVAAKLRELGYEVEVEPLPGYARIRVKPPSA [r9_510_TrMRF] | 1.67
SAKKENSVPVTIEIELEFDSIEKAKKAIEKLAAEIEKETGAKIEIKVEIEEKENNYIVKVELTIYLPKESAG [r14_626_TrMRF] | 1.6
SAGKVKVEKLEDGTVIVEAEIKDPETDEYIKIFDLVTFNPETGYALVPRLVIKGDKPFTFPVLVKLPKSAGG [r19_289_TrMRF] | 0.0636
SAGGSNPNMFRLKVEIEPYEYRDPDGQPKARVWKIDIEMEPGMPPNMAKNIASNFQNRGLPVKIEPSAGGSA [r2_456_TrROS] | 0.102

----------
test: folding stability dG unfold (combined trypsin and chymotrypsin); higher = more stable
Rule: Condition met for folding stability dG unfold not less than 3 kcal/mol, Condition not met for anything less.

SMNITVTYDPETDTVTIEIDDEEIDPETLRELLDAIPPNVKRVIIHVDHPETARTVEELAKETGLPVEIASA [r9_919_TrMRF] | Condition met
SSAEELARRLAAELAERLPPGARITDVRIERRADGTVTITVTVELPDGRTLTVTITLDLATGEITIEIHPSA [r9_219_TrROS_Hall] | Condition met
SAGGSAGGSAGNMKEVEFTIPGAPPDELADNLPPGIKDVEIERNPEARENGGYSIKAYVDSAGGSAGGSAGG [r11_1002_TrROS] | Condition not met
SAGGFLENLPDEVVEAALAAVLPDGSRVFVALRKGPDRPRVLIITFDANGVPRDIRELDPEEALKALEASAG [r5_73_TrMRF] | Condition not met
SAGGSAMKVATLKVGGVDHTVEITPLPDGSYPVTTTAEEGGETTTTVVPKSEVKKLEDLPPEYRLLSAGGSA [r15_629_JUSTAS] | Condition not met
SSSVVESSYDPSTGTLTVTVSYDFPPAPPAAATSSTTPVGSNSYTGSGSYTSPAGASSLSSTATGPPTLSSA [r9_780_JUSTAS] | Condition not met
SAGGSAGGSAGGKTIVVELEDGSKATITVDEDGNVTVEVYDEKTGEKKTFTIPAEALKPSAGGSAGGSAGGS [r10_838_TrROS_Hall] | Condition not met

----------
test: folding stability dG unfold (combined trypsin and chymotrypsin); higher = more stable
Rule: 1 for folding stability dG unfold not less than 9 kJ/mol, -1 for anything less.

SAGGSAGGSAGKIEAFPGKNTVLLKISIPRRDPNSDSIYTLHAVIPATPEQAKKFLELGISAGGSAGGSAGG [r11_389_TrMRF] | -1
SAGGSAGGSAGIVIPLDGRPIVIDMYPNGYMRIEVEPPNGKKKTRTFPGAPIEDILKAIKSAGGSAGGSAGG [r11_934_TrROS] | -1
SAGGPPRPVRIDIDPDAGSIEIMFPNGWPYEIPIPPDSIDEITLDPNDHVIEIKMPGKEIKFDIEPVSAGGS [r16_104_TrROS] | -1
SAGGMRIWRVPETGVRAEVGTGGPWLVTITSSTTPVPEVRPVPPEEVEAFLRARFPGPVEEVERRPVPESAG [r5_519_JUSTAS] | -1
SAGGRPTMTAEEAAIRLIKELGIPGVKDIKEVVAVVRGGDPDNKPEKGSAILIKAEVPAEEVERLKKESAGG [r13_552_TrMRF] | -1
SMEIVFKGKNYYVPVKIDLDNPKITIETYPDKRNKVFKPLSKETAEKIAKAVEIEVAEKIAKAIAEGKPPSA [r9_368_TrMRF] | -1
SAGGSAGGRWYIMIEIRFPGNGRQFSFMIPIPPGDEVDIKLDELAEWFGFPNVKVDIQVMPLEKSAGGSAGG [r6_722_TrROS] | 1
SAGSVTTITDPAGTTTEIQPLPDGSLLTTTTTHTTNPATGGATTTTTTTLVSPVPGQPSTTTSTTTTPASAG [r5_424_JUSTAS] | -1
SAGGDSISDIESVNIYSFNIPSNPYPYIIAELTIPDGRKIIAIYDPSTNTVTIIIEDDGKPRIITLPASAGG [r13_960_TrMRF] | 1
GRMYIVKIEIKVKRRDPEEGETRERKLEVHVIFPPNDPDALEKADEIARNLAEEDGITDVKVKIYPIRLPDS [r1_346_TrROS] | -1
MMYLIRVTVYDEETEEEVEEIEILIELSEEELKNMSEEEREKLLEEALKKAEELAKEYPNLKIEVEIVELPS [r1_115_TrROS_Hall] | 1
SAGGSAGGSAGSMTVTVTGGGVSVEVYPETGLVRVRSPSGSETLVDIATGEVVRREPAAASAGGSAGGSAGG [r11_149_JUSTAS] | -1

Ref: the supplement of paper PMC12764529
